For each entry below, report its melting point value.

Exam item: # query: melting point of entry CCOC(=O)C1=C(C)NC(C)=C(C(=O)OCC)C1c1ccccc1Cl [Example 6]
Marked response: 120 to 121 °C

Exam item: # query: melting point of entry CC1=C(C(=O)OC(C)(C)C)C(c2ccccc2I)C(C(=O)OC(C)(C)C)=C(C)N1 [Example 28]
Marked response: 184 to 185 °C

Exam item: # query: melting point of entry COC(=O)C1=C(C)NC(C)=C(C(C)=O)C1c1ccccc1Cl (stereo not drawn) [Example 57]
Marked response: 183 to 184 °C

Exam item: # query: melting point of entry CCOC(=O)C1=C(C)NC(C)=C(C(=O)OC)C1c1ccccc1Cl (stereo not drawn) [Example 56]
Marked response: 125 to 127 °C

Exam item: # query: melting point of entry CCOC(=O)C1=C(C)NC(C)=C(C(=O)OCC)C1c1cc(Cl)ccc1Cl [Example 34]
Marked response: 166.5 to 167.5 °C

Exam item: # query: melting point of entry C=CCOC(=O)C1=C(C)NC(C)=C(C(=O)OCC=C)C1c1ccccc1Cl [Example 16]
Marked response: 98 to 99 °C

Exam item: # query: melting point of entry CCOC(=O)C1=C(C)NC(C)=C(C(=O)OCC)C1c1ccccc1I [Example 18]
Marked response: 173 to 174.5 °C

Exam item: # query: melting point of entry CCOC(=O)C1=C(C)NC(C)=C(C(=O)OC)C1c1ccccc1Br (stereo not drawn) [Example 58]
Marked response: 134.5 to 135.5 °C

Exam item: # query: melting point of entry CCOC(=O)C1=C(C)NC(C)=C(C(=O)OCC)C1c1c(Cl)cccc1Cl [Example 36]
Marked response: 134 to 135 °C

Exam item: # query: melting point of entry CCOC(=O)C1=C(C)NC(C)=C(C(=O)OCC)C1c1cc(Cl)cc(Cl)c1 [Example 37]
Marked response: 102 to 104 °C

Exam item: # query: melting point of entry CCOC(=O)C1=C(C)NC(C)=C(C(=O)OCC)C1c1ccc(Br)cc1F [Example 43]
Marked response: 154 to 155 °C

Exam item: # query: melting point of entry COCC1=C(C(=O)OC)C(c2ccccc2Cl)C(C(=O)OC)=C(COC)N1 [Example 17]
Marked response: 137 to 138 °C

Exam item: # query: melting point of entry CCOC(=O)C1=C(C)NC(C)=C(C(=O)OCC)C1c1cccc(Cl)c1Cl [Example 31]
Marked response: 125 to 126 °C

Exam item: # query: melting point of entry CCOC(=O)C1=C(C)N(Cc2ccccc2)C(C)=C(C(=O)OCC)C1c1ccc(Br)cc1 [Example 54]
Marked response: 168 to 169 °C

Exam item: # query: melting point of entry CC1=C(C(=O)OC(C)(C)C)C(c2ccccc2Cl)C(C(=O)OC(C)(C)C)=C(C)N1 [Example 9]
Marked response: 194 to 196 °C

Exam item: # query: melting point of entry COCCOC(=O)C1=C(C)NC(C)=C(C(=O)OCCOC)C1c1ccccc1Cl [Example 10]
Marked response: 120 to 121 °C

Exam item: # query: melting point of entry CCOC(=O)C1=C(C)NC(C)=C(C(=O)OCC)C1c1ccc(F)cc1 [Example 51]
Marked response: 150 to 151 °C

Exam item: # query: melting point of entry CC1=C(C(=O)OC(C)(C)C)C(c2ccc(C)cc2C)C(C(=O)OC(C)(C)C)=C(C)N1 [Example 55]
Marked response: 197 to 198 °C
